molecular target: UniProtKB Q92847; assay: GHS-R 1a receptor-ligand binding assay (membrane preparations from transfected LLC PK-1 cells); conditions: displacement of 125I-His9-ghrelin; plasma membranes of LLC PK-1 cells transiently transfected with human GHS-R 1a; mean of at least two independent experiments in triplicates
pIC50: −log10 of the molar value.
Decide using pIC50: a value greater than or equal to 7 is satisfied, a smaller one is not satisfied.

Inquiry: Is it the case that O=C(N[C@H](Cc1c[nH]c2ccccc12)c1nnc(Cc2ccccc2)n1Cc1ccc(Cl)c(Cl)c1)c1cnccn1 [Compound 38] has pIC50 reaching or exceeding 7?
Reply text: not satisfied

Inquiry: Is it the case that O=C(N[C@H](Cc1c[nH]c2ccccc12)c1nnc(CCc2ccccc2)n1Cc1cccc2ccccc12)C1CCOCC1 [Compound 19] has pIC50 reaching or exceeding 7?
Reply text: not satisfied

Inquiry: Is it the case that NC1(C(=O)N[C@H](Cc2c[nH]c3ccccc23)c2nnc(CCc3c[nH]c4ccccc34)n2Cc2cccc3ccccc23)CCNCC1 [Compound 48] has pIC50 reaching or exceeding 7?
Reply text: satisfied

Inquiry: Is it the case that COc1ccc(Cn2c(CCc3ccccc3)nnc2[C@@H](Cc2ccc3ccccc3c2)NC(=O)C2CCNCC2)cc1 [Compound 54] has pIC50 reaching or exceeding 7?
Reply text: satisfied

Inquiry: Is it the case that NCCCC(=O)N[C@H](Cc1c[nH]c2ccccc12)c1nnc(CCc2ccccc2)n1Cc1cccc2ccccc12 [Compound 68] has pIC50 reaching or exceeding 7?
Reply text: not satisfied

Inquiry: Is it the case that COc1ccc(Cn2c(CCc3ccccc3)nnc2[C@@H](Cc2ccc3ccccc3c2)NC(=O)c2ccccn2)cc1 [Compound 57] has pIC50 reaching or exceeding 7?
Reply text: satisfied

----------
target: human GHS-R 1a (Homo sapiens); experiment: GHS-R 1a receptor-ligand binding assay (membrane preparations from transfected LLC PK-1 cells); details: displacement of 125I-His9-ghrelin; plasma membranes of LLC PK-1 cells transiently transfected with human GHS-R 1a; mean of at least two independent experiments in triplicates
Sequence (Q92847 whole entry): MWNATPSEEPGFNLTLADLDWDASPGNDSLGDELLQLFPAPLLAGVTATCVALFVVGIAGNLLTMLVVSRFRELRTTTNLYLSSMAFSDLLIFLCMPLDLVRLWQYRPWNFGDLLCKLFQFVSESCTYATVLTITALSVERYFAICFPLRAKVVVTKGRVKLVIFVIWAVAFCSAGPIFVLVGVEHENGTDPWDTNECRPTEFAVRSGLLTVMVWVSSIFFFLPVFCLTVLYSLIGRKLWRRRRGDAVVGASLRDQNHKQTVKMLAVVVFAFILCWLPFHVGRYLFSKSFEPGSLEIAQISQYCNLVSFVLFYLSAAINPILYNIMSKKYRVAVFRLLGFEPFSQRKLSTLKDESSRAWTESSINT
reported endpoint: pIC50
Value format note: pIC50 is -log10 of concentration (mol/L); just state the number.

Inquiry: Query: pIC50; subject: COc1ccc(Cn2c(CCc3ccccc3)nnc2[C@@H](Cc2ccc3ccccc3c2)NC(=O)C2CCCN2)cc1 (stereo partly shown) [Compound 59]
Reply text: 7.56

Inquiry: Query: pIC50; subject: COc1ccc(Cn2c(CCc3c[nH]c4ccccc34)nnc2[C@@H](Cc2c[nH]c3ccccc23)NC(=O)c2ccn[nH]2)cc1 [Compound 14]
Reply text: 7.05

Inquiry: Query: pIC50; subject: COc1ccc(Cn2c(CCc3ccccc3)nnc2[C@@H](Cc2c[nH]c3ccccc23)NC(=O)C2(N)CCNCC2)c(OC)c1 [Compound 10]
Reply text: 8.89

Inquiry: Query: pIC50; subject: O=C(Cc1ccccn1)N[C@H](Cc1c[nH]c2ccccc12)c1nnc(CCc2c[nH]c3ccccc23)n1Cc1ccc(Cl)c(Cl)c1 [Compound 52]
Reply text: 7.32

Inquiry: Query: pIC50; subject: NCCCC(=O)N[C@H](Cc1c[nH]c2ccccc12)c1nnc(CCCc2c[nH]c3ccccc23)n1Cc1cccc2ccccc12 [Compound 69]
Reply text: 6.90

Inquiry: Query: pIC50; subject: COc1ccc(Cn2c(CCc3ccccc3)nnc2[C@@H](Cc2c[nH]c3ccccc23)NC(=O)[C@H]2CNCCN2)cc1 [Compound 2]
Reply text: 6.84

Inquiry: Query: pIC50; subject: O=C(N[C@H](Cc1c[nH]c2ccccc12)c1nnc(CCCc2c[nH]c3ccccc23)n1Cc1cccc2ccccc12)C1CCOCC1 [Compound 46]
Reply text: 6.84

Inquiry: Query: pIC50; subject: O=C(N[C@H](Cc1c[nH]c2ccccc12)c1nnc(CCc2c[nH]c3ccccc23)n1Cc1cccc2ccccc12)c1ccccn1 [Compound 18]
Reply text: 8.28

Inquiry: Query: pIC50; subject: COc1ccc(Cn2c(CCc3c[nH]c4ccccc34)nnc2[C@@H](Cc2ccc3ccccc3c2)NC(=O)c2ccccn2)cc1 [Compound 58]
Reply text: 9.00

Inquiry: Query: pIC50; subject: O=C(N[C@H](Cc1c[nH]c2ccccc12)c1nnc(CCc2c[nH]c3ccccc23)n1Cc1ccc(Cl)c(Cl)c1)C1CCCN1 (stereo partly shown) [Compound 53]
Reply text: 6.80

Inquiry: Query: pIC50; subject: O=C(N[C@H](Cc1c[nH]c2ccccc12)c1nnc(Cc2ccccc2)n1Cc1ccc(Cl)c(Cl)c1)C1CCOCC1 [Compound 37]
Reply text: 6.70

Inquiry: Query: pIC50; subject: COc1ccc(Cn2c(CCc3ccccc3)nnc2[C@@H](Cc2ccc3ccccc3c2)NC(=O)C(C)(C)N)cc1 [Compound 55]
Reply text: 7.86

Inquiry: Query: pIC50; subject: O=C(N[C@H](Cc1c[nH]c2ccccc12)c1nnc(CCCc2c[nH]c3ccccc23)n1Cc1cccc2ccccc12)C1CCCN1 (stereo partly shown) [Compound 44]
Reply text: 6.22
